Target: Histone deacetylase 8 (Homo sapiens, UniProt Q9BY41)
Sequence (Q9BY41 whole entry): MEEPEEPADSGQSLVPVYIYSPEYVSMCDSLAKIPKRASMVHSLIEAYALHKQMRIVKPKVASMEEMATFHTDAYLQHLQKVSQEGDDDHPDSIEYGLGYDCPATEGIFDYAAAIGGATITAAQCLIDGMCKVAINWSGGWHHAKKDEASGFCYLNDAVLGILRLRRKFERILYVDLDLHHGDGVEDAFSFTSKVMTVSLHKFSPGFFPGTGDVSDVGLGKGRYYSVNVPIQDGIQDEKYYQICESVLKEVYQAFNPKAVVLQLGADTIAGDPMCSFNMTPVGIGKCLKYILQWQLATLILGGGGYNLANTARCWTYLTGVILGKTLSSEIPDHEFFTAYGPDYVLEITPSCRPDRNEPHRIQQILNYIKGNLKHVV
Test: Inhibition of recombinant full length human HDAC8 expressed in baculovirus infected Sf9 cells using FAM-RHKK-TFAc as substrate incubated for 3 hrs by electrophoretic mobility shift assay
readout.label: pIC50
One number for each entry, as −log10 of the molar value.

Use the examples below as a reference point.
> print(dat)
                               smiles.input  value.reported
1  CN(C(=O)CN(C)S(=O)(=O)c1ccc(F)cc1)c1ccc(C(=O)NO)cc1            6.24
2  CC(C)(C)c1ccc(CN(C(=O)CNS(=O)(=O)c2ccc(F)cc2)c2ccc(C(=O)NO)cc2)cc1            7.55
3  CN(C(=O)CN(Cc1c(F)c(F)c(F)c(F)c1F)S(=O)(=O)c1ccc(F)cc1)c1ccc(C(=O)NO)cc1            6.65
4  O=C(NO)c1ccc(N(Cc2ccccc2)C(=O)CN(Cc2c(F)c(F)c(F)c(F)c2F)S(=O)(=O)c2ccc(F)cc2)cc1            7.04
5  CC(C)(C)c1ccc(C(=O)Nc2ccc(C(=O)NO)cc2)cc1            6.61

Hi team, please reply with pIC50 for each item in this list.
1. CC(C)(C)OC(=O)N(Cc1ccc(C(C)(C)C)cc1)c1ccc(C(=O)NO)cc1
2. CN(CC(=O)N(Cc1ccc(C(C)(C)C)cc1)c1ccc(C(=O)NO)cc1)S(=O)(=O)c1ccc(F)cc1
3. CC(=O)N(Cc1ccc(C(C)(C)C)cc1)c1ccc(C(=O)NO)cc1
4. CC(C)(C)c1ccc(CN(C(=O)CN(Cc2c(F)c(F)c(F)c(F)c2F)S(C)(=O)=O)c2ccc(C(=O)NO)cc2)cc1

Result:
6.20
7.42
7.07
6.88
